From: the supplement of paper PMC8866396

Listing: cell viability of selected molecules
# Test system: IL-6-GFP PC-9
# assay: cell viability (CCK-8 OD) relative to DMSO control (fraction of control); higher = more viable cells
# condition-context: compound concentration: 10 uM; treatment time: 48 h
# answer = number (no unit)

Given CC1(C)OC2CC3C4CC(F)C5=CC(=O)C=CC5(C)C4(F)C(O)CC3(C)C2(C(=O)CO)O1 (centres undefined) [Fluocinolone Acetonide] , state its recorded cell viability.
1

More entries:
Given Cc1cncc(CN2CCC(=C3c4ccc(Cl)cc4CCc4cccnc43)CC2)c1.O=C(O)/C=C/C(=O)O [Rupatadine Fumarate] , state its recorded cell viability.
1.16

Given CN1C2=CC(=O)/C(=N\NC(N)=O)C=C2CC1S(=O)(=O)[O-].[Na+] (centres undefined) [Carbazochrome sodium sulfonate (AC-17)] , state its recorded cell viability.
1.04

Given N.N.O=C([O-])C1(C(=O)[O-])CCC1.[Pt+2] , state its recorded cell viability.
1.12

Given Cl.N=C1CCCN1Cc1[nH]c(=O)[nH]c(=O)c1Cl.O=c1[nH]c(=O)n(C2CC(O)C(CO)O2)cc1C(F)(F)F.O=c1[nH]c(=O)n(C2CC(O)C(CO)O2)cc1C(F)(F)F (centres undefined) , state its recorded cell viability.
0.812

Given CC1CC2C3CCC4=CC(=O)C=CC4(C)C3(F)C(O)CC2(C)C1C(=O)CO (centres undefined) , state its recorded cell viability.
1.08

Given Cc1cnc(NC(=O)C2=C(O)c3ccccc3S(=O)(=O)N2C)s1 , state its recorded cell viability.
1.4

Given COc1nc2ccc(Br)cc2cc1C(c1ccccc1)C(O)(CCN(C)C)c1cccc2ccccc12.O=C(O)/C=C/C(=O)O (centres undefined) [Bedaquiline fumarate] , state its recorded cell viability.
1.15

Given CC(C)=CCOc1ccc(/C=C/C(=O)c2ccc(OCC=C(C)C)cc2OCC(=O)O)cc1 , state its recorded cell viability.
1.01

Given CC(C)OC(=O)CCC/C=C\CC1C(O)CC(O)C1CCC(O)CCc1ccccc1 (centres undefined) , state its recorded cell viability.
1

Given COc1cc2ncnc(Nc3ccc(F)c(Cl)c3)c2cc1OCCCN1CCOCC1.Cl [Gefitinib hydrochloride] , state its recorded cell viability.
0.658

Given NC(CC(=O)N1CCn2c(nnc2C(F)(F)F)C1)Cc1cc(F)c(F)cc1F (centres undefined) , state its recorded cell viability.
1.14

Given CNCC(O)c1ccc(O)c(O)c1.O=C(O)C(O)C(O)C(=O)O (centres undefined) [Epinephrine bitartrate] , state its recorded cell viability.
1.2

Given CC(=O)OCC1OC(n2ccc(=O)[nH]c2=O)C(OC(C)=O)C1OC(C)=O (centres undefined) [uridine triacetate] , state its recorded cell viability.
1.17

Given CC(C)(O)CNc1nc(Nc2ccnc(C(F)(F)F)c2)nc(-c2cccc(C(F)(F)F)n2)n1 , state its recorded cell viability.
1.03
